# System: Human immunodeficiency virus 1
# TEST METHOD NOTES: Antiviral activity against HIV-1 NL4-3 infected in human MT4 cells assessed as reduction in p24 production treated at 48 hrs post-infection and measured on day 4 post-viral infection by ELISA
# Type: functional, organism-based
# COND: Human immunodeficiency virus 1, NL4-3, MT4
Exam item: assign TRUE to entries whose IC50 is below 400 nM and FALSE to entries at or above 400 nM. Note that a value of exactly 400 nM receives FALSE.

COMPOUND | QUALITATIVE LABEL
CC1=C[C@H]2[C@@]3(O)[C@H](C)[C@@H](O)[C@]4(OC(=O)/C=C/c5ccccc5)C([C@@H]3C=C(CO)C[C@]2(O)C1=O)C4(C)C (single isomer, unassigned) | FALSE

Exercise: # TODO verify IC50 < 400 nM strictly for this compound: `CC(=O)O[C@@H]1[C@@H](C)[C@@]2(O)[C@@H](C=C(CO)C[C@]3(O)C(=O)C(C)=C[C@@H]23)[C@@H]2C(C)(C)[C@]12OC(C)=O`
Key: FALSE

Exercise: # TODO verify IC50 < 400 nM strictly for this compound: `CC/C=C/C/C=C/C/C=C/C/C=C/C/C=C/CCCC(=O)OCC1=C[C@H]2[C@@H]3C(C)(C)[C@]3(OC(=O)CCC/C=C/C/C=C/C/C=C/C/C=C/C/C=C/CC)[C@H](O)[C@@H](C)[C@]2(O)[C@@H]2C=C(C)C(=O)[C@@]2(O)C1`
Key: FALSE

Exercise: # TODO verify IC50 < 400 nM strictly for this compound: CC/C=C/C/C=C/C/C=C/C/C=C/C/C=C/CCCC(=O)O[C@]12C([C@@H]3C=C(CO)C[C@]4(O)C(=O)C(C)=C[C@H]4[C@@]3(O)[C@H](C)[C@H]1O)C2(C)C (single isomer, unassigned)
Key: TRUE

Exercise: # TODO verify IC50 < 400 nM strictly for this compound: `CCCC(=O)OCC1=C[C@H]2[C@@H]3C(C)(C)[C@]3(OC(=O)CCC)[C@H](OC(=O)/C=C/c3ccc(OC(C)=O)c(OC)c3)[C@@H](C)[C@]2(O)[C@@H]2C=C(C)C(=O)[C@@]2(O)C1`
Key: FALSE

Exercise: # TODO verify IC50 < 400 nM strictly for this compound: `Cc1cn([C@H]2C[C@H](N=[N+]=[N-])[C@@H](CO)O2)c(=O)[nH]c1=O`
Key: TRUE

Exercise: # TODO verify IC50 < 400 nM strictly for this compound: `CC/C=C/C/C=C/C/C=C/C/C=C/C/C=C/CCCC(=O)OCC1=C[C@H]2[C@@H]3C(C)(C)[C@]3(OC(=O)CCC/C=C/C/C=C/C/C=C/C/C=C/C/C=C/CC)[C@H](OC(=O)CCC/C=C/C/C=C/C/C=C/C/C=C/C/C=C/CC)[C@@H](C)[C@]2(O)[C@@H]2C=C(C)C(=O)[C@@]2(O)C1`
Key: FALSE

---

# TEST METHOD NOTES: Selectivity index, ratio of CC75 for cytotoxicity against human MT4 cells to IC50 for antiviral activity against HIV-1 NL4-3 infected in human MT4 cells
# Format: toxicity, cell-based
# COND: read-out: Selectivity Index
Would you kindly list selectivity ratio for each of these molecules?

Field: example entries. Status: answers known.
MOLECULE | VALUE
CC(=O)O[C@@]12[C@H](OC(=O)/C=C/c3ccc(Cl)cc3)[C@@H](C)[C@@]3(O)[C@@H](C=C(CO)C[C@]4(O)C(=O)C(C)=C[C@@H]34)[C@@H]1C2(C)C | > 5000
CCCC(=O)O[C@]12C([C@@H]3C=C(CO)C[C@]4(O)C(=O)C(C)=C[C@H]4[C@@]3(O)[C@H](C)[C@H]1OC(=O)/C=C/c1ccccc1)C2(C)C (single isomer, unassigned) | > 5000

Exercise: Which selectivity ratio value belongs to `CC/C=C/C/C=C/C/C=C/C/C=C/C/C=C/CCCC(=O)O[C@@H]1[C@@H](C)[C@@]2(O)[C@@H](C=C(CO)C[C@]3(O)C(=O)C(C)=C[C@@H]23)[C@@H]2C(C)(C)[C@]12OC(=O)CCC` ?
Key: > 1500

---

Would you kindly list pIC50 for each of these molecules?
# Test system: KB
# TEST METHOD NOTES: Antiproliferative activity against human KB cells assessed as reduction in cell viability measured after 72 hrs by SRB assay
# Format: functional, cell-based
pIC50: −log10 of the molar value.

CPD SMILES | RESULT TYPE | VALUE
CC/C=C/C/C=C/C/C=C/C/C=C/C/C=C/CCCC(=O)O[C@@H]1[C@@H](C)[C@@]2(O)[C@@H](C=C(CO)C[C@]3(O)C(=O)C(C)=C[C@@H]23)[C@@H]2C(C)(C)[C@]12OC(=O)CCC | pIC50 | < 5.00

Exercise: Which pIC50 value belongs to `CC/C=C/C/C=C/C/C=C/C/C=C/C/C=C/CCCC(=O)OCC1=C[C@H]2[C@@H]3C(C)(C)[C@]3(OC(=O)CCC/C=C/C/C=C/C/C=C/C/C=C/C/C=C/CC)[C@H](OC(=O)CCC/C=C/C/C=C/C/C=C/C/C=C/C/C=C/CC)[C@@H](C)[C@]2(O)[C@@H]2C=C(C)C(=O)[C@@]2(O)C1` ?
Key: < 4.40

---

Would you kindly list IC50 for each of these molecules?
# Tested on: A549
# TEST METHOD NOTES: Antiproliferative activity against human A549 cells assessed as reduction in cell viability measured after 72 hrs by SRB assay
# COND: A549, 72 h

Field: example entries. Status: answers known.
CPD SMILES | IC50
CC(=O)O[C@@H]1[C@@H](C)[C@@]2(O)[C@@H](C=C(CO)C[C@]3(O)C(=O)C(C)=C[C@@H]23)[C@@H]2C(C)(C)[C@]12OC(C)=O | 7.49 µM
CC/C=C/C/C=C/C/C=C/C/C=C/C/C=C/CCCC(=O)OCC1=C[C@H]2[C@@H]3C(C)(C)[C@]3(OC(=O)CCC/C=C/C/C=C/C/C=C/C/C=C/C/C=C/CC)[C@H](O)[C@@H](C)[C@]2(O)[C@@H]2C=C(C)C(=O)[C@@]2(O)C1 | > 10 µM

Pending molecule:
Exercise: Which IC50 value belongs to `COc1cc(/C=C/C(=O)O[C@@H]2[C@@H](C)[C@@]3(O)[C@@H](C=C(CO)C[C@]4(O)C(=O)C(C)=C[C@@H]34)[C@@H]3C(C)(C)[C@]23OC(C)=O)ccc1O` ?
Key: > 10 µM

---

Would you kindly list pIC50 for each of these compounds?
# Tested on: KB
# TEST METHOD NOTES: Antiproliferative activity against human KB cells assessed as reduction in cell viability measured after 72 hrs by SRB assay
# Format: functional, cell-based
Answers are plain numbers, as −log10 of the molar value.

CPD SMILES | VALUE
CC1=C[C@H]2[C@@]3(O)[C@H](C)[C@@H](OC(=O)CCc4ccccc4)[C@]4(OC(=O)CCc5ccccc5)[C@H]([C@@H]3C=C(CO)C[C@]2(O)C1=O)C4(C)C | 5.08

Pending compound:
Exercise: Which pIC50 value belongs to `CC1=C[C@H]2[C@@]3(O)[C@H](C)[C@@H](OC(=O)/C=C/c4ccccc4)[C@]4(OC(=O)/C=C/c5ccccc5)[C@H]([C@@H]3C=C(CO)C[C@]2(O)C1=O)C4(C)C` ?
Key: 5.19

---

# Test system: A549
# TEST METHOD NOTES: Antiproliferative activity against human A549 cells assessed as reduction in cell viability measured after 72 hrs by SRB assay
# COND: A549, 72 h
Would you kindly list pIC50 for each of these compounds?
Numbers only, as −log10 of the molar value.

COMPOUND | pIC50
CCCC(=O)OCC1=C[C@H]2C3C(C)(C)[C@]3(OC(=O)CCC)[C@H](OC(=O)/C=C/c3ccccc3)[C@@H](C)[C@]2(O)[C@@H]2C=C(C)C(=O)[C@@]2(O)C1 (single isomer, unassigned) | 5.49

Exercise: Which pIC50 value belongs to `CC1=C[C@H]2[C@@]3(O)[C@H](C)[C@@H](OC(=O)/C=C/c4ccccc4)[C@]4(OC(=O)/C=C/c5ccccc5)[C@H]([C@@H]3C=C(CO)C[C@]2(O)C1=O)C4(C)C` ?
Key: 5.33

---

Would you kindly list pIC50 for each of these compounds?
# Tested on: KB
# TEST METHOD NOTES: Antiproliferative activity against human KB cells assessed as reduction in cell viability measured after 72 hrs by SRB assay
# Assay type: functional, cell-based
pIC50: −log10 of the molar value.

I need pIC50 for every entry listed below, if you could help.
1. C/C=C/C(=O)OCC1=C[C@H]2C3C(C)(C)[C@]3(OC(=O)/C=C/C)[C@H](O)[C@@H](C)[C@]2(O)[C@@H]2C=C(C)C(=O)[C@@]2(O)C1 (single isomer, unassigned)
2. CCCC(=O)O[C@]12C([C@@H]3C=C(CO)C[C@]4(O)C(=O)C(C)=C[C@H]4[C@@]3(O)[C@H](C)[C@H]1OC(=O)/C=C/c1ccccc1)C2(C)C (single isomer, unassigned)
3. CC/C=C/C/C=C/C/C=C/C/C=C/C/C=C/CCCC(=O)O[C@@H]1[C@@H](C)[C@@]2(O)[C@@H](C=C(CO)C[C@]3(O)C(=O)C(C)=C[C@@H]23)[C@@H]2C(C)(C)[C@]12OC(=O)CCC/C=C/C/C=C/C/C=C/C/C=C/C/C=C/CC

Key:
["< 5.00", "< 5.00", "< 5.00"]
